Reference for the values: ChEMBL document CHEMBL1136945

Below is a list of entries, each paired with its recorded EC50 value.
system: Plasmodium falciparum; test: Antimalarial activity as reduced parasitaemia after 72 hrs against chloroquine-resistant Plasmodium falciparum K1 infected human O+ erythrocytes by DNA stain without pepstatin; assay type: functional, organism-based; settings: K1, 72 h

- compound: "N#Cc1nc(NCc2ccc(Cl)c(Cl)c2)c2c(n1)N(Cc1cccc(C(F)(F)F)c1)CN2"
  EC50: "24 µM"
- compound: "NC(=S)N/N=C(/CCc1ccccc1)c1cccc(Cl)c1"
  EC50: "> 30 µM"
- compound: "CC(O)CN1CNc2c(NCc3ccc(Cl)c(Cl)c3)nc(C#N)nc21 (centres undefined)"
  EC50: "> 30 µM"
- compound: "N#Cc1nc(NCc2ccc(F)cc2)c2c(n1)N(Cc1ccccc1)CN2"
  EC50: "> 30 µM"
- compound: "N#Cc1nc(NCc2ccc(Br)cc2)c2c(n1)N(CCCc1ccccc1)CN2"
  EC50: "> 30 µM"
- compound: "N#Cc1nc(NCc2ccc(-c3cccs3)cc2)c2ncn(CCCO)c2n1"
  EC50: "30 µM"
- compound: "CCCCCCNc1nc(C#N)nc2c1NCN2CC1CCCCC1"
  EC50: "> 30 µM"
- compound: "N#Cc1nc(NCc2ccc(Cl)c(Cl)c2)c2c(n1)N(CCCO)CN2"
  EC50: "> 30 µM"
- compound: "CCCCN1CNc2c(NCc3ccc(C)cc3)nc(C#N)nc21"
  EC50: "> 30 µM"
- compound: "N#Cc1nc(NCc2ccccc2)c2c(n1)N(Cc1cccc(C(F)(F)F)c1)CN2"
  EC50: "30 µM"
- compound: "Cc1ccc(/C(=N/NC(N)=S)c2cccc(C(F)(F)F)c2)cc1"
  EC50: "> 30 µM"
- compound: "CCCCN1CNc2c(NCc3ccc(F)cc3)nc(C#N)nc21"
  EC50: "> 30 µM"
- compound: "N#Cc1nc(NCc2cccc(-c3cc(Cl)cc(Cl)c3)c2)c2ncn(CCCO)c2n1"
  EC50: "> 30 µM"
- compound: "COc1ccc(CNc2nc(C#N)nc3c2NCN3Cc2ccccc2)cc1"
  EC50: "> 30 µM"
- compound: "N#Cc1nc(NCc2ccccc2)c2c(n1)N(C1CCCCO1)CN2 (centres undefined)"
  EC50: "> 30 µM"
- compound: "N#Cc1nc(NCCc2ccccc2)c2c(n1)N(Cc1ccccc1)CN2"
  EC50: "> 30 µM"
- compound: "CCCCN1CNc2c(NCc3cccc(C)c3)nc(C#N)nc21"
  EC50: "> 30 µM"
- compound: "Cc1ccc(CNc2nc(C#N)nc3c2NCN3CCCO)cc1"
  EC50: "> 30 µM"
- compound: "NC(=S)N/N=C(\\c1cc(Cl)cc(Cl)c1)c1cccs1"
  EC50: "> 30 µM"
- compound: "N#Cc1nc(NCc2ccc(Br)cc2)c2c(n1)N(Cc1ccccc1)CN2"
  EC50: "30 µM"
- compound: "CC(=O)Nc1cccc(CNc2nc(C#N)nc3c2ncn3CCCO)c1"
  EC50: "11 µM"
- compound: "CCCCN1CNc2c(NCc3ccc(Br)cc3)nc(C#N)nc21"
  EC50: "> 30 µM"
- compound: "CCCCN1CNc2c(NCc3ccc(Cl)c(Cl)c3)nc(C#N)nc21"
  EC50: "> 30 µM"
- compound: "COc1ccc(CN2CNc3c(NCc4ccc(Cl)cc4)nc(C#N)nc32)cc1"
  EC50: "> 30 µM"
- compound: "CC(C)Oc1c(Br)cccc1-c1cccc(CNc2nc(C#N)nc3c2ncn3CCCO)c1"
  EC50: "> 30 µM"
- compound: "Cc1ccc(/C(=N/NC(N)=S)c2cc(Cl)cc(Cl)c2)cc1"
  EC50: "> 30 µM"
- compound: "Cc1cccc(CNc2nc(C#N)nc3c2NCN3C2CCCC2)c1"
  EC50: "> 30 µM"
- compound: "N#Cc1nc(NCCc2ccccc2)c2c(n1)N(c1cccnc1)CN2"
  EC50: "> 30 µM"
- compound: "N#Cc1nc(NCc2ccc(Cl)c(Cl)c2)c2c(n1)N(Cc1ccccc1)CN2"
  EC50: "30 µM"
- compound: "Cc1ccc(/C(=N/NC(N)=S)c2cc(C(F)(F)F)cc(C(F)(F)F)c2)cc1"
  EC50: "30 µM"
- compound: "CN(C)c1cccc(-c2cccc(CNc3nc(C#N)nc4c3ncn4CCCO)c2)c1"
  EC50: "> 30 µM"
- compound: "COC(=O)c1cccc(-c2cccc(CNc3nc(C#N)nc4c3ncn4CCCO)c2)c1"
  EC50: "> 30 µM"
- compound: "NC(=S)N/N=C(/C=C/c1ccccc1)c1cccc(C(F)(F)F)c1"
  EC50: "30 µM"
- compound: "COc1cc(OC)c(-c2cccc(CNc3nc(C#N)nc4c3ncn4CCCO)c2)cn1"
  EC50: "> 30 µM"
- compound: "COC(CCN1CNc2c(NCc3ccc(Cl)c(Cl)c3)nc(C#N)nc21)OC"
  EC50: "> 30 µM"
- compound: "N#Cc1nc(NCc2ccc(-c3cccc(Cl)c3)cc2)c2ncn(CCCO)c2n1"
  EC50: "18 µM"
- compound: "N#Cc1nc(NCc2cccc(-c3ccc4cc[nH]c4c3)c2)c2ncn(CCCO)c2n1"
  EC50: "> 30 µM"
- compound: "COc1ccc(-c2cccc(CNc3nc(C#N)nc4c3ncn4CCCO)c2)cc1"
  EC50: "> 30 µM"
- compound: "CC(Nc1nc(C#N)nc2c1NCN2C1CCCC1)c1ccccc1 (centres undefined)"
  EC50: "30 µM"
- compound: "N#Cc1nc(NCc2ccc(-c3ccco3)cc2)c2ncn(CCCO)c2n1"
  EC50: "12 µM"
- compound: "N#Cc1nc(NCc2ccc(Cl)c(Cl)c2)c2c(n1)N(CCCC(=O)O)CN2"
  EC50: "> 30 µM"
- compound: "N#Cc1nc(NCc2cccc(-c3cc4ccccc4n3S(=O)(=O)c3ccccc3)c2)c2ncn(CCCO)c2n1"
  EC50: "30 µM"
- compound: "N#Cc1nc(NCc2cccc(-c3ccccc3)c2)c2ncn(CCCO)c2n1"
  EC50: "> 30 µM"
- compound: "NC(=S)N/N=C(/CCc1ccccc1)c1ccccc1"
  EC50: "> 30 µM"

---

Below is a list of entries, each paired with its recorded pEC50 value.
tested on: Plasmodium falciparum; assay: Antimalarial activity as reduced parasitaemia after 72 hrs against chloroquine-resistant Plasmodium falciparum K1 infected human O+ erythrocytes by DNA stain without pepstatin; format: functional, organism-based; conditions: K1, 72 h
pEC50: −log10 of the molar value.
quantity: pEC50

- compound: "N#Cc1nc(NCc2ccc(Cl)cc2)c2c(n1)N(CCCCO)CN2"
  endpoint-value: "< 4.52"
- compound: "COc1ccc(CN2CNc3c(NCc4ccccc4)nc(C#N)nc32)cc1"
  endpoint-value: "< 4.52"
- compound: "CCCCN1CNc2c(NC(C)c3ccccc3)nc(C#N)nc21 (stereo not drawn)"
  endpoint-value: 4.52
- compound: "N#Cc1nc(NCc2ccc(Cl)c(Cl)c2)c2c(n1)N(CC(O)CO)CN2 (stereo not drawn)"
  endpoint-value: "< 4.52"
- compound: "N#Cc1nc(NCc2ccccc2)c2c(n1)N(CCCO)CN2"
  endpoint-value: "< 4.52"
- compound: "N#Cc1nc(NCc2cccc(-c3ccco3)c2)c2ncn(CCCO)c2n1"
  endpoint-value: "< 4.52"
- compound: "N#Cc1nc(NCc2ccc(Cl)cc2)c2c(n1)N(Cc1cccc(C(F)(F)F)c1)CN2"
  endpoint-value: 4.52
- compound: "CCCCCCNc1nc(C#N)nc2c1NCN2Cc1ccccc1"
  endpoint-value: "< 4.52"
- compound: "CCCC/C(=N\\NC(N)=S)c1ccc(Cl)c(Cl)c1"
  endpoint-value: "< 4.52"
- compound: "N#Cc1nc(NCc2cccc(-c3cccs3)c2)c2ncn(CCCO)c2n1"
  endpoint-value: "< 4.52"
- compound: "N#Cc1nc(NCc2ccc(-c3cccnc3)cc2)c2ncn(CCCO)c2n1"
  endpoint-value: "< 4.52"
- compound: "CC(=O)Nc1ccc(CNc2nc(C#N)nc3c2ncn3CCCO)cc1"
  endpoint-value: 4.52
- compound: "N#Cc1nc(NCc2ccc(-c3ccsc3)cc2)c2ncn(CCCO)c2n1"
  endpoint-value: 4.52
- compound: "C=Cc1ccc(-c2cccc(CNc3nc(C#N)nc4c3ncn4CCCO)c2)cc1"
  endpoint-value: "< 4.52"
- compound: "COc1ccc(CNc2nc(C#N)nc3c2NCN3C2CCCC2)cc1"
  endpoint-value: "< 4.52"
- compound: "CCCCN1CNc2c(NCc3ccc(OC)cc3)nc(C#N)nc21"
  endpoint-value: "< 4.52"
- compound: "Cc1ccc(CNc2nc(C#N)nc3c2NCN3Cc2ccccc2)cc1"
  endpoint-value: "< 4.52"
- compound: "N#Cc1nc(NCc2cccc(-c3ccoc3)c2)c2ncn(CCCO)c2n1"
  endpoint-value: "< 4.52"
- compound: "CCCCN1CNc2c(NCc3ccccc3)nc(C#N)nc21"
  endpoint-value: "< 4.52"
- compound: "N#Cc1nc(NCc2ccc(Cl)cc2)c2c(n1)N(CC1CCCCC1)CN2"
  endpoint-value: "< 4.52"
- compound: "N#Cc1nc(NCc2ccc(Cl)cc2)c2c(n1)N(C1CCCC1)CN2"
  endpoint-value: 4.52
- compound: "NC(=S)N/N=C(/c1ccccc1)c1cc(Cl)cc(Cl)c1"
  endpoint-value: "< 4.52"
- compound: "CC(C)Oc1ccccc1-c1cccc(CNc2nc(C#N)nc3c2ncn3CCCO)c1"
  endpoint-value: 4.52
